Molecular target: Sodium-dependent noradrenaline transporter (Homo sapiens)
Assay: Inhibition of (-)-[3H]NE uptake at NET
QUANTITY: IC50 (nM)
The answer is to be given in nM; state only the numeric part.

Entry under test: C=C1CN2C3CCC2C1C(c1ccc(C)cc1)C3 (stereo unspecified) . Its IC50 was 2.2

###

Target: UniProt:Q01959
Sequence (Q01959 whole entry): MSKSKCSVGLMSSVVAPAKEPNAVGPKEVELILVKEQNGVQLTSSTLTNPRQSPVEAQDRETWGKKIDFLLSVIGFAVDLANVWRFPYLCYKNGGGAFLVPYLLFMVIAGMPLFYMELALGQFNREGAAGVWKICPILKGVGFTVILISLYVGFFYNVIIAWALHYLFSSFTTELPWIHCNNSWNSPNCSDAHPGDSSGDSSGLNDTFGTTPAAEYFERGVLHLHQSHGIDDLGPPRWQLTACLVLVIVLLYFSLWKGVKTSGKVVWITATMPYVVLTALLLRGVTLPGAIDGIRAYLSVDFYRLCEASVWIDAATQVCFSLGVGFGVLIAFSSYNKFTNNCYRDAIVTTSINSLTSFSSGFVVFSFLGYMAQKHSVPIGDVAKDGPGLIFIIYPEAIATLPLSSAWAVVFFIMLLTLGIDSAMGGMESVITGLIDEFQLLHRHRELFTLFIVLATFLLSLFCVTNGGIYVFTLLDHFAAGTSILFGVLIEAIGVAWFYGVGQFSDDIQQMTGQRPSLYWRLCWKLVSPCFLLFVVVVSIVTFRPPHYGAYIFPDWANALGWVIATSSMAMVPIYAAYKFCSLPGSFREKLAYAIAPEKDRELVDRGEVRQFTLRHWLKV
Experiment: Displacement of [125I]RTI-55 from human DAT transfected in HEK293 cells
QUANTITY: Ki (nM)
The answer is to be given in nM; state only the numeric part.

Example compounds with recorded Ki:
C=C1CN2C3CCC2C1C(c1ccc(Cl)cc1)C3 (configuration not stated)	12.3
C=C1CN2C3CCC2C1C(c1ccc(C)cc1)C3 (configuration not stated)	41
C=C1CN2C3CCC2C1C(c1ccc(I)cc1)C3 (configuration not stated)	8.48

Entry under test: COC(=O)/C=C1/CN2C3CCC2C1C(c1ccc(Cl)cc1)C3 (configuration not stated) . Its Ki was 4.54

###

Molecular target: Sodium-dependent serotonin transporter (Homo sapiens)
Sequence (P31645 whole entry): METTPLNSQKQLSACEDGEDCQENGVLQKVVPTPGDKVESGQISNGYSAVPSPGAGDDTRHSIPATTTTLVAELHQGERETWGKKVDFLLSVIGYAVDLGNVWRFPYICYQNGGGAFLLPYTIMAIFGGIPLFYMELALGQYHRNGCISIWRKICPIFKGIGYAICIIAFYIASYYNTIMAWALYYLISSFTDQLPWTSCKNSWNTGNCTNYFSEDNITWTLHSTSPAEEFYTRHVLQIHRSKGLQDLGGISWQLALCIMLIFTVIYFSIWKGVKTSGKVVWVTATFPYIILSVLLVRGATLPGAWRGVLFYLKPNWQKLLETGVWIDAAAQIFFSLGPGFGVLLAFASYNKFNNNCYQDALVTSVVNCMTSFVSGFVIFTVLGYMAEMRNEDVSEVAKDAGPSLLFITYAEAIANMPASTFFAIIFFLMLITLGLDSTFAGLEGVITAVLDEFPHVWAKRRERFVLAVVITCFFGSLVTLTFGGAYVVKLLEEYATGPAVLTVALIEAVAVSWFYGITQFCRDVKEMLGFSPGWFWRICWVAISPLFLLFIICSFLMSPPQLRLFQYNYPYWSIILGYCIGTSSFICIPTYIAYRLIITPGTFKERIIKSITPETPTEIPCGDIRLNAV
Assay: Displacement of [3H]citalopram from human SERT transfected in HEK293 cells
Measured Ki accompanies every entry in the list below.
Field: value (include unit after the number)

C=C1CN2C3CCC2C1C(c1ccc(Br)cc1)C3 (configuration not stated)	0.28 nM
C=C1CN2C3CCC2C1C(c1ccc(Cl)cc1)C3 (configuration not stated)	0.82 nM
C=C1CN2C3CCC2C1C(c1ccc(I)cc1)C3 (configuration not stated)	0.09 nM
COC(=O)/C=C1/CN2C3CCC2C1C(c1ccc(C)cc1)C3 (configuration not stated)	98.3 nM
COC(=O)/C=C1/CN2C3CCC2C1C(c1ccc(Br)cc1)C3 (configuration not stated)	5.63 nM

Test item COC(=O)/C=C1/CN2C3CCC2C1C(c1ccc(Cl)cc1)C3 (configuration not stated) ; Sodium-dependent serotonin transporter (Homo sapiens); reported Ki was 18.7 nM

Test item C=C1CN2C3CCC2C1C(c1ccc(C)cc1)C3 (configuration not stated) ; Sodium-dependent serotonin transporter (Homo sapiens); reported Ki was 7.77 nM

###

Target: Sodium-dependent noradrenaline transporter (Homo sapiens, UniProt P23975)
Sequence (P23975 whole entry): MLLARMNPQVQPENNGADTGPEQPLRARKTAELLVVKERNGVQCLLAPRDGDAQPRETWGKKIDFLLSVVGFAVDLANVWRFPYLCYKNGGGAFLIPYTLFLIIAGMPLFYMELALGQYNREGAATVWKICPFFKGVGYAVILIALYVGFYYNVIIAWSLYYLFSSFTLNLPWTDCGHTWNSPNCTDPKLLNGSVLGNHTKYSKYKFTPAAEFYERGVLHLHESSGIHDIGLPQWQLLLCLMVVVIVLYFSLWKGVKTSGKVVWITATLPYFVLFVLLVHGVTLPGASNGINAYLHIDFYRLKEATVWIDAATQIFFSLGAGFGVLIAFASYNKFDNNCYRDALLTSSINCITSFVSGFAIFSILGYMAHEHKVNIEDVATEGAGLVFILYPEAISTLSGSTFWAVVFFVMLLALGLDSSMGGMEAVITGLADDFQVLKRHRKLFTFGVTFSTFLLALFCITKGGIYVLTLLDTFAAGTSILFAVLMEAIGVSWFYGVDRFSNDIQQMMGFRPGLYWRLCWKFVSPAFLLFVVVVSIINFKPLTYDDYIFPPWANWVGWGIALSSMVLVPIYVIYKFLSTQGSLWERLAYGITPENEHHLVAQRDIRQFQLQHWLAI
Assay: Displacement of [3H]nisoxetine from human NET transfected in HEK293 cells
pKi: −log10 of the molar value.
# label = satisfied if pKi >= 8 else not satisfied

Look over these answered cases.
C=C1CN2C3CCC2C1C(c1ccc(C)cc1)C3 (configuration not stated)	not satisfied
C=C1CN2C3CCC2C1C(c1ccc(Br)cc1)C3 (configuration not stated)	satisfied
COC(=O)/C=C1/CN2C3CCC2C1C(c1ccc(C)cc1)C3 (configuration not stated)	not satisfied

Shift focus to the following entry.
Assess whether reported pKi for C=C1CN2C3CCC2C1C(c1ccc(Cl)cc1)C3 (configuration not stated) sits at 8 or higher.
satisfied

###

Biological target: UniProt:Q01959
Test: Displacement of [125I]RTI-55 from human DAT transfected in HEK293 cells
Measured pKi accompanies every entry in the list below.
Field pKi (float): negative decimal logarithm of the concentration in molar.

Test item COC(=O)/C=C1/CN2C3CCC2C1C(c1ccc(Br)cc1)C3 (stereo not drawn) ; UniProt:Q01959; reported pKi was 8.53

Test item C=C1CN2C3CCC2C1C(c1ccc(Br)cc1)C3 (stereo not drawn) ; UniProt:Q01959; reported pKi was 7.38

Test item COC(=O)/C=C1/CN2C3CCC2C1C(c1ccc(C)cc1)C3 (stereo not drawn) ; UniProt:Q01959; reported pKi was 7.88
